Where these numbers come from: ChEMBL document CHEMBL1142429

Assay Name: Inhibition of ACE
Property: IC50 (nM)

1 = CC[C@@H](C)[C@H](N)C(=O)N[C@@H](Cc1ccc(O)cc1)C(=O)N[C@@H](Cc1ccc(O)cc1)C(=O)O
2 = CC[C@@H](C)[C@H](NC(C)=O)C(=O)N[C@@H](Cc1ccc(O)cc1)C(=O)N[C@H](Cc1ccc(O)cc1)P(=O)(O)O
3 = CC[C@@H](C)[C@H](NC(C)=O)C(=O)N[C@@H](Cc1ccc(O)cc1)C(=O)N[C@@H](Cc1ccc(O)cc1)P(=O)(O)O
Lookup: Ranking by IC50 (descending) is requested for the entries above. Note for the reader: the ranking is given by listing the labels in the order requested.
Found: 1, 2, 3
(1: 236000 nM, 2: 139 nM, 3: 14.4 nM)
